Listed compounds paired with reported inhibition
system: Alpha glucosidase (Homo sapiens, UniProt O43451+P10253+P14410+Q2M2H8)
test_method_notes: Inhibition of alpha glucosidase (unknown origin) at 50 uM relative to control
Assay type: protein assay
experimental_readout: inhibition (%)

| compound | system | unit_string | observed_value |
| --- | --- | --- | --- |
| Cc1ccc(-c2ccc(C(=O)Nc3nccs3)o2)cc1 | Alpha glucosidase (Homo sapiens, UniProt O43451+P10253+P14410+Q2M2H8) | % | 64.6 |
| C[C@H]1O[C@H](O[C@H]2[C@H](O)[C@@H](O)[C@@H](O[C@H]3[C@H](O)[C@@H](O)C(O)O[C@@H]3CO)O[C@@H]2CO)[C@H](O)[C@@H](O)[C@@H]1N[C@H]1C=C(CO)[C@@H](O)[C@H](O)[C@H]1O (stereo not given in full) | Alpha glucosidase (Homo sapiens, UniProt O43451+P10253+P14410+Q2M2H8) | % | 11.5 |
| O=C(Sc1nccs1)c1ccc(-c2c(F)cccc2F)o1 | Alpha glucosidase (Homo sapiens, UniProt O43451+P10253+P14410+Q2M2H8) | % | 83.6 |
| O=C(Sc1nccs1)c1ccc(-c2cccc([N+](=O)[O-])c2)o1 | Alpha glucosidase (Homo sapiens, UniProt O43451+P10253+P14410+Q2M2H8) | % | 20.2 |
| O=C(Nc1nccs1)c1ccc(-c2ccc(F)cc2F)o1 | Alpha glucosidase (Homo sapiens, UniProt O43451+P10253+P14410+Q2M2H8) | % | 34.1 |
| O=C(Nc1nccs1)c1ccc(-c2c(F)cccc2F)o1 | Alpha glucosidase (Homo sapiens, UniProt O43451+P10253+P14410+Q2M2H8) | % | 21.6 |
| O=C(Nc1nccs1)c1ccc(-c2ccc(Cl)cc2)o1 | Alpha glucosidase (Homo sapiens, UniProt O43451+P10253+P14410+Q2M2H8) | % | 69.1 |
| O=C(Sc1nccs1)c1ccc(-c2ccc(F)cc2)o1 | Alpha glucosidase (Homo sapiens, UniProt O43451+P10253+P14410+Q2M2H8) | % | 43.4 |
| O=C(Sc1nccs1)c1ccc(-c2ccccc2Cl)o1 | Alpha glucosidase (Homo sapiens, UniProt O43451+P10253+P14410+Q2M2H8) | % | 88.2 |
| O=C(Sc1nccs1)c1ccc(-c2ccccc2F)o1 | Alpha glucosidase (Homo sapiens, UniProt O43451+P10253+P14410+Q2M2H8) | % | 83.6 |

----------
system: Alpha glucosidase (Homo sapiens, UniProt O43451+P10253+P14410+Q2M2H8)
test_method_notes: Inhibition of alpha glucosidase (unknown origin)
Type: protein assay
Binary call on IC50 with cut-off 6 µM: strictly below means True, and equality or higher means False.

| structure_notation | group |
| --- | --- |
| O=C(Nc1nccs1)c1ccc(-c2c(F)cccc2F)o1 | False |
| O=C(Sc1nccs1)c1ccc(-c2ccccc2Cl)o1 | True |
| O=C(Nc1nccs1)c1ccc(-c2ccccc2[N+](=O)[O-])o1 | False |
| O=C(Sc1nccs1)c1ccc(-c2ccc(Cl)cc2)o1 | True |
| COc1ccc(-c2ccc(C(=O)Sc3nccs3)o2)cc1 | False |
| O=C(Sc1nccs1)c1ccc(-c2ccc(F)cc2F)o1 | False |

----------
test_method_notes: Cytotoxicity against human HepG2 cells assessed as inhibition of cell growth at 100 uM by CCK-8 assay relative to control
Format: toxicity, cell-based
condition: read-out: Activity
Listed molecules paired with reported inhibition at 100 µM
experimental_readout: inhibition at 100 µM (%)

| structure_notation | experimental_readout | observed_value |
| --- | --- | --- |
| O=C(Sc1nccs1)c1ccc(-c2ccccc2[N+](=O)[O-])o1 | inhibition at 100 µM | 47.2 |
| O=C(Nc1nccs1)c1ccc(-c2cccc([N+](=O)[O-])c2)o1 | inhibition at 100 µM | 13.7 |

----------
Listed compounds paired with reported inhibition
system: Alpha glucosidase (Homo sapiens, UniProt O43451+P10253+P14410+Q2M2H8)
test_method_notes: Inhibition of alpha glucosidase (unknown origin) at 50 uM relative to control
Assay type: protein assay

| structure_notation | inhibition / % |
| --- | --- |
| O=C(Sc1nccs1)c1ccc(-c2ccc(Br)cc2)o1 | 89.9 |
| O=C(Nc1nccs1)c1ccc(-c2ccc([N+](=O)[O-])cc2)o1 | 91.5 |
| O=C(Nc1nccs1)c1ccc(-c2ccccc2F)o1 | 87.6 |
| O=C(Nc1nccs1)c1ccc(-c2ccccc2)o1 | 27.3 |
| O=C(Nc1nccs1)c1ccc(-c2ccccc2[N+](=O)[O-])o1 | 87.7 |
| O=C(Nc1nccs1)c1ccc(-c2cccc(F)c2)o1 | 88.1 |
| COc1ccc(-c2ccc(C(=O)Nc3nccs3)o2)cc1 | 59 |
| Cc1ccc(-c2ccc(C(=O)Sc3nccs3)o2)cc1 | 80.4 |
| O=C(Nc1nccs1)c1ccc(-c2ccccc2Cl)o1 | 59.3 |

----------
system: Alpha glucosidase (Homo sapiens, UniProt O43451+P10253+P14410+Q2M2H8)
test_method_notes: Inhibition of alpha glucosidase (unknown origin)
Type: protein assay
Binary call on IC50 with cut-off 5 µM: strictly below means Yes, and equality or higher means No.

| structure_notation | system | group |
| --- | --- | --- |
| O=C(Nc1nccs1)c1ccc(-c2cccc([N+](=O)[O-])c2)o1 | Alpha glucosidase (Homo sapiens, UniProt O43451+P10253+P14410+Q2M2H8) | Yes |
| O=C(Sc1nccs1)c1ccc(-c2ccc([N+](=O)[O-])cc2)o1 | Alpha glucosidase (Homo sapiens, UniProt O43451+P10253+P14410+Q2M2H8) | No |
| O=C(Sc1nccs1)c1ccc(-c2cccc(Cl)c2)o1 | Alpha glucosidase (Homo sapiens, UniProt O43451+P10253+P14410+Q2M2H8) | Yes |
| O=C(Sc1nncs1)c1ccc(-c2ccc(Cl)cc2)o1 | Alpha glucosidase (Homo sapiens, UniProt O43451+P10253+P14410+Q2M2H8) | Yes |
| COc1ccc(-c2ccc(C(=O)Nc3nccs3)o2)cc1 | Alpha glucosidase (Homo sapiens, UniProt O43451+P10253+P14410+Q2M2H8) | No |
| O=C(Sc1nccs1)c1ccc(-c2ccc(Br)cc2)o1 | Alpha glucosidase (Homo sapiens, UniProt O43451+P10253+P14410+Q2M2H8) | No |
| O=C(Nc1nccs1)c1ccc(-c2ccc(Cl)cc2)o1 | Alpha glucosidase (Homo sapiens, UniProt O43451+P10253+P14410+Q2M2H8) | No |
| O=C(Nc1nccs1)c1ccc(-c2ccccc2)o1 | Alpha glucosidase (Homo sapiens, UniProt O43451+P10253+P14410+Q2M2H8) | No |
| Cc1nnc(SC(=O)c2ccc(-c3cccc(F)c3)o2)s1 | Alpha glucosidase (Homo sapiens, UniProt O43451+P10253+P14410+Q2M2H8) | Yes |
| O=C(Nc1nccs1)c1ccc(-c2ccccc2Cl)o1 | Alpha glucosidase (Homo sapiens, UniProt O43451+P10253+P14410+Q2M2H8) | No |
| Cc1ccc(-c2ccc(C(=O)Sc3nccs3)o2)cc1 | Alpha glucosidase (Homo sapiens, UniProt O43451+P10253+P14410+Q2M2H8) | No |

----------
test_method_notes: Cytotoxicity against mouse RAW264.7 cells assessed as inhibition of cell growth at 100 uM by CCK-8 assay relative to control
Type: toxicity, cell-based
condition: read-out: Activity

| structure_notation | inhibition at 100 µM |
| --- | --- |
| O=C(Nc1nccs1)c1ccc(-c2cccc([N+](=O)[O-])c2)o1 | 16.4% |
| O=C(Sc1nccs1)c1ccc(-c2ccccc2[N+](=O)[O-])o1 | 38.1% |

----------
Listed molecules paired with reported IC50
system: Alpha glucosidase (Homo sapiens, UniProt O43451+P10253+P14410+Q2M2H8)
test_method_notes: Inhibition of alpha glucosidase (unknown origin)
Format: protein assay

| structure_notation | IC50 / µM |
| --- | --- |
| Cc1ccc(-c2ccc(C(=O)Nc3nccs3)o2)cc1 | 26.495 |
| O=C(Sc1nccs1)c1ccc(-c2cccc(F)c2)o1 | 5.392 |
| O=C(Sc1nccs1)c1ccc(-c2ccccc2[N+](=O)[O-])o1 | 0.645 |
| O=C(Sc1nccs1)c1ccc(-c2c(F)cccc2F)o1 | 8.436 |
| O=C(Nc1nccs1)c1ccc(-c2ccccc2F)o1 | 19.763 |
| O=C(Nc1nccs1)c1ccc(-c2ccc(F)cc2)o1 | 20.717 |
| N#C/N=c1\sccn1C(=O)c1ccc(-c2cccc(Cl)c2)o1 | 1.2 |
| O=C(Sc1nccs1)c1ccc(-c2ccccc2)o1 | 2.223 |
| O=C(Nc1nccs1)c1ccc(-c2ccc(Br)cc2)o1 | 24.125 |
| O=C(Nc1nccs1)c1ccc(-c2cccc(Cl)c2)o1 | 5.871 |
| O=C(Nc1nccs1)c1ccc(-c2cccc(F)c2)o1 | 6.227 |
| O=C(Nc1nccs1)c1ccc(-c2ccc(F)cc2F)o1 | 77.99 |
